target: Human NPY1 Receptor (Homo sapiens)
Sequence (P25929 whole entry): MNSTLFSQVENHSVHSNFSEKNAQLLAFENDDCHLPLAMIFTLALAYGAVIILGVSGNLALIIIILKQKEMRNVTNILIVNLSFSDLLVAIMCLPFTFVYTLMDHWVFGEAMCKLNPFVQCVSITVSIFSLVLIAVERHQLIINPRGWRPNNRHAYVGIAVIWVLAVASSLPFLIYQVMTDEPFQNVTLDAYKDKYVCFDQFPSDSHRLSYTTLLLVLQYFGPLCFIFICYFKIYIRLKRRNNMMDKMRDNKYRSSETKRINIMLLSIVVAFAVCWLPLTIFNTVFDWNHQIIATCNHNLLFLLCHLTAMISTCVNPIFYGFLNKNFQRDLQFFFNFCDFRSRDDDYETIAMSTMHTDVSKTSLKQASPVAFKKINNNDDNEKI
Observable: IC50

Some compounds with known IC50 results, for comparison:
Cn1ccnc1SCC(=O)Nc1ccc(C(C)(C)C)cc1 [Compound 143, reference compound] ... > 5 µM
CC(C)c1ccc(NC(=O)CSc2n[nH]c(=O)n2-c2cccc(F)c2)cc1 [Compound 141, reference compound] ... > 5 µM
CSc1sc(-c2nnc(SCC(=O)Nc3ccc(Cl)cc3)n2C)c2c1C=CCC2 [Compound 159, reference compound] ... > 5 µM
Cc1cc(-c2nc(C)c(-c3nnc(SCC(=O)Nc4ccc(Cl)cc4)n3C)s2)no1 [Compound 169, reference compound] ... > 5 µM
CCC(C)c1ccc(NC(=O)CSc2nnnn2C)cc1 (stereo not shown) [Compound 171, reference compound] ... > 5 µM
CC(C)c1ccc(NC(=O)CSc2nnc(Cn3cc(C(F)(F)F)ccc3=O)n2C)cc1 [Compound 176, reference compound] ... > 5 µM

// for each compound below, give its IC50
1. CCn1c(SCC(=O)Nc2cc(C)ccc2OC)nnc1C(F)(F)F [Compound 157, reference compound]
2. CCn1c(SCC(=O)Nc2ccc(Cl)cc2)nc2ccccc21 [Compound 140, reference compound]

Output:
1. > 5 µM
2. > 5 µM

// for each compound below, give its IC50
1. CCOc1ccc(NC(=O)CSc2nccn2C)cc1 [Compound 156, reference compound]
2. O=C(CSC1=NCCN1)Nc1ccc(Cl)cc1 [Compound 187, reference compound]

Output:
> 5 µM
> 5 µM

// for each compound below, give its IC50
1. Cn1cnnc1SCC(=O)Nc1ccc(F)cc1 [Compound 170, reference compound]
2. COC(Cn1c(SCC(=O)Nc2ccc(Cl)cc2)nnc1-c1ccccc1)OC [Compound 162, reference compound]
3. Cn1ccnc1SCC(=O)Nc1ccc(I)cc1 [Compound 145, reference compound]
4. Cn1c(CN2C(=O)CSc3ccc(C(F)(F)F)cc32)nnc1SCC(=O)Nc1ccccc1 [Compound 152, reference compound]
5. Cn1ccnc1SCC(=O)Nc1ccc(Cl)cc1 [Compound 139, reference compound]
6. Cn1cnnc1SCC(=O)Nc1ccc(C2CCCCC2)cc1 [Compound 173, reference compound]

Output:
1: > 5 µM; 2: > 5 µM; 3: > 5 µM; 4: > 5 µM; 5: > 5 µM; 6: > 5 µM
